- experimental.target: T1, Duffy Antigen Receptor for Chemokines (DARC) (human, UniProt Q16570 1-336)
- T1 construct: whole, on cells
- T1 sequence (looked up): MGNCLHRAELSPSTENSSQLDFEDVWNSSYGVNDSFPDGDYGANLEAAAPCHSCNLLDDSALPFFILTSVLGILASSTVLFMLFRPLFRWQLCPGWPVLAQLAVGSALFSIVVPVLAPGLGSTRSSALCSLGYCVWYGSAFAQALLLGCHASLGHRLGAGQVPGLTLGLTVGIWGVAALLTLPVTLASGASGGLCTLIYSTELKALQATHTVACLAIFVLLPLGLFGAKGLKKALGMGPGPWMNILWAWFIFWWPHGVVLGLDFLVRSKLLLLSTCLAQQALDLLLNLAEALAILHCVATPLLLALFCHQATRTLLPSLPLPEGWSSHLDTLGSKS
- method.summary: competition binding analysis using red blood cells; given as affinity
assay.endpoint: Kd

>  <binder>
SYRRITSSKCPKEAV (also called Pep2[MCP1]; Pep2(1-15)[MCP1]) [Peptide 2(1-15)[MCP-1]]

>  <assay.endpoint>
Kd

>  <endpoint.result>
< 500 nM

$$$$
